TEST: AUC in C57BL/6 mouse at 10 mg/kg, po via gavage measured upto 7 hrs by LC-MS/MS analysis
Type: ADME, organism-based
Parameters: time < 7 hrs, dose 10 mg/kg, route po
CONDITION SET: in vivo
ATTRIBUTE MEASURED: AUC at 7 h (µM·h)

A. CC(C)[C@H]1COC(=O)N1c1ccnc(N[C@@H](C)c2ccc(Oc3ccccc3)cc2)n1
B. Cc1cc(-c2cnc([C@H](C)Nc3nccc(N4C(=O)OC[C@@H]4C(C)C)n3)nc2)ccc1F
# input Of A and B , which shows the smaller AUC at 7 h value? Mark your answer with the label of the selected entry.
# output A
(A: 1.1 µM·h, B: 3.6 µM·h)

----------
STUDY TARGET: Isocitrate dehydrogenase [NADP] cytoplasmic (Homo sapiens, UniProt O75874)
Sequence (O75874 whole entry): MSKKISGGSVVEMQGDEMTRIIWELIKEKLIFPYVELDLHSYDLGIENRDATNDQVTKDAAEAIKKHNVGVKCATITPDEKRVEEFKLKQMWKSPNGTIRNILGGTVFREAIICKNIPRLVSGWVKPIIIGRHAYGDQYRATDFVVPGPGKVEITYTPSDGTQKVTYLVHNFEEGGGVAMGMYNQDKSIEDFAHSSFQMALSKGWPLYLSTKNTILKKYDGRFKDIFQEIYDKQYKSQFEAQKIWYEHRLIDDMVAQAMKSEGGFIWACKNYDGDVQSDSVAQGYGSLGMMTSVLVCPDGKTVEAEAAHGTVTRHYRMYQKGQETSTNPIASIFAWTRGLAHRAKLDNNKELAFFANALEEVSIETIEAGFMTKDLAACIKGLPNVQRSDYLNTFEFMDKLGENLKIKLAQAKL
TEST: Inhibition of wild type human IDH1 measured after 2 hrs in presence of […] by fluorescence based biochemical assay
ATTRIBUTE MEASURED: pIC50
Scale: pIC50 equals -log10([C]), with [C] in mol/L.

# input For Isocitrate dehydrogenase [NADP] cytoplasmic (Homo sapiens, UniProt O75874), provide pIC50 of CC(C)[C@H]1COC(=O)N1c1ccnc(N[C@@H](C)c2ccc(Oc3ccccc3)cc2)n1 please.
# output 5.99

----------
TEST: Ratio of drug level in brain to plasma in rat at 30 mg/kg, po
Format: ADME, organism-based
ATTRIBUTE MEASURED: Kp
Answer as a number with no unit attached.

# input Reported Kp, molecule Cc1cc(-c2cnc([C@H](C)Nc3nccc(N4C(=O)OC[C@@H]4C(C)C)n3)nc2)ccc1F : ____
# output 1.4

----------
STUDY TARGET: Isocitrate dehydrogenase [NADP] cytoplasmic (Homo sapiens, UniProt O75874, R132H)
Sequence (O75874 2-414 R132H limits assumed): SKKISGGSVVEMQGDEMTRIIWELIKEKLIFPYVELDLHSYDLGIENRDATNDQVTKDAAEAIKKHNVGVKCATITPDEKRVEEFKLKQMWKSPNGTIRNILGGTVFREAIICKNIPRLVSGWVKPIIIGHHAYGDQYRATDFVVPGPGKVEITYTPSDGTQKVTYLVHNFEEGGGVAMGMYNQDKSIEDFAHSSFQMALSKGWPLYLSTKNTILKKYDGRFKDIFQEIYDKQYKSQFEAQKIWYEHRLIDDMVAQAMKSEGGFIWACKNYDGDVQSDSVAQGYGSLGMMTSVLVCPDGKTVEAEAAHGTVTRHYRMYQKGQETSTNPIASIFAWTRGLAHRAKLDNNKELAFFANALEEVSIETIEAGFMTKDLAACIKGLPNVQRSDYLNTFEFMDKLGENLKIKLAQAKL
TEST: Inhibition of human N-terminal 6His-tagged IDH1 R132H mutant expressed in Escherichia coli Rosetta2 (DE3) assessed as effect on […] 2-HG level incubated for 60 mins in presence of alpha-ketoglutarate and NADPH by LC/MS/MS analysis
ATTRIBUTE MEASURED: IC50 (µM)

Example results:
> print(dat)
                               query.smiles  units  measurement
1  CC(C)[C@H]1COC(=O)N1c1ccnc(N[C@@H](C)c2cccc(F)c2)n1     µM         0.25
2  COc1cccc([C@H](C)Nc2nccc(N3C(=O)OC[C@@H]3C(C)C)n2)c1     µM         0.13

A. CC(C)[C@H]1COC(=O)N1c1ccnc(N[C@@H](C)c2cccc3ccccc23)n1
B. CC(C)[C@H]1COC(=O)N1c1ccnc(N[C@@H](C)c2ccc(F)cc2)n1
# input Please tell me which of the two, A or B , has the higher reported IC50 value. Mark your answer with the label of the selected entry.
# output A
(A: 0.25 µM, B: 0.15 µM)

A. COc1ccc([C@H](C)Nc2nccc(N3C(=O)OC[C@@H]3C(C)C)n2)cc1
B. CC(C)[C@H]1COC(=O)N1c1ccnc(N[C@@H](C)c2ccc(-c3ccccc3)cc2)n1
# input Of A and B , which shows the smaller IC50 value? Mark your answer with the label of the selected entry.
# output B
(B: 0.12 µM, A: 0.3 µM)

A. CC(C)[C@H]1COC(=O)N1c1ccnc(N[C@@H](C)c2ncc(Oc3ccc(F)cc3)cn2)n1
B. CC(C)[C@H]1COC(=O)N1c1ccnc(N[C@@H](C)c2ccc(Oc3ccccc3)cc2)n1
# input Of A and B , which shows the smaller IC50 value? Mark your answer with the label of the selected entry.
# output B
(B: 0.01 µM, A: 0.081 µM)

----------
TEST: AUC in C57BL/6 mouse at 100 mg/kg, po via gavage measured upto 7 hrs by LC-MS/MS analysis
Format: ADME, organism-based
Design: dose 100 mg/kg, time < 7 hrs, route po
CONDITION SET: in vivo
ATTRIBUTE MEASURED: AUC at 7 h (µM·h)

P. Cc1cc(-c2cnc([C@H](C)Nc3nccc(N4C(=O)OC[C@@H]4C(C)C)n3)nc2)ccc1F
Q. CC(C)[C@H]1COC(=O)N1c1ccnc(N[C@@H](C)c2ccc(Oc3ccccc3)cc2)n1
# input Please tell me which of the two, P or Q , has the higher reported AUC at 7 h value. Mark your answer with the label of the selected entry.
# output P
(P: 55.5 µM·h, Q: 7.9 µM·h)

----------
TEST: AUC in rat brain at 30 mg/kg, po
Type: ADME, organism-based
Set-up: dose 30 mg/kg, route po
ATTRIBUTE MEASURED: AUC (µM·h)
Please respond with the number in µM·h and leave the unit unwritten.

# input Reported AUC, molecule Cc1cc(-c2cnc([C@H](C)Nc3nccc(N4C(=O)OC[C@@H]4C(C)C)n3)nc2)ccc1F : ____
# output 3.12

----------
STUDY TARGET: Isocitrate dehydrogenase [NADP] cytoplasmic (Homo sapiens, UniProt O75874, R132H)
TEST: Inhibition of IDH1 R132H mutant expressed in human HCT-116 cells assessed as effect on intracellular 2-HG level incubated for 48 hrs by LC/MS/MS analysis
Assay type: cell-based
ATTRIBUTE MEASURED: IC50 (nM)

Example results:
> print(dat)
                                   compound                              study.target  attribute.measured  measurement
1  COc1ccc([C@H](C)Nc2nccc(N3C(=O)OC[C@@H]3C(C)C)n2)cc1  Isocitrate dehydrogenase [NADP] cytoplasmic (Homo sapiens, UniProt O75874, R132H)                IC50          870
2  CC(C)[C@H]1COC(=O)N1c1ccnc(N[C@@H](C)c2ccccc2F)n1  Isocitrate dehydrogenase [NADP] cytoplasmic (Homo sapiens, UniProt O75874, R132H)                IC50          690
3  CC(C)[C@H]1COC(=O)N1c1ccnc(N[C@@H](C)c2ncc(-c3ccccc3)cn2)n1 (mixture of isomers)  Isocitrate dehydrogenase [NADP] cytoplasmic (Homo sapiens, UniProt O75874, R132H)                IC50          500
4  CC(C)[C@H]1COC(=O)N1c1ccnc(N[C@@H](C)c2ccc(C#N)cc2)n1  Isocitrate dehydrogenase [NADP] cytoplasmic (Homo sapiens, UniProt O75874, R132H)                IC50         1340
5  CC(C)[C@H]1COC(=O)N1c1ccnc(N[C@@H](C)c2ccc(-c3ccccc3)cc2)n1  Isocitrate dehydrogenase [NADP] cytoplasmic (Homo sapiens, UniProt O75874, R132H)                IC50          170

P. COc1ccc([C@H](C)Nc2nccc(N3C(=O)OC[C@@H]3C(C)C)n2)cc1OC
Q. CC(C)[C@H]1COC(=O)N1c1ccnc(N[C@@H](C)c2ccc(Oc3ccccc3)cc2)n1
R. COc1ccccc1[C@H](C)Nc1nccc(N2C(=O)OC[C@@H]2C(C)C)n1
# input # rank_down: sort by IC50, max first List each label, following the requested order.
# output P, R, Q
(P: 2500 nM, R: 520 nM, Q: 22 nM)

----------
STUDY TARGET: Isocitrate dehydrogenase [NADP] cytoplasmic (Homo sapiens, UniProt O75874, R132H)
TEST: Inhibition of IDH1 R132H mutant expressed in human HCT-116 cells assessed as effect on intracellular 2-HG level incubated for 48 hrs by LC/MS/MS analysis
Assay type: cell-based
pIC50: −log10 of the molar value.
ATTRIBUTE MEASURED: pIC50

> print(dat)
                               query.smiles  measurement
1  CC(C)[C@H]1COC(=O)N1c1ccnc(N[C@@H](C)c2ccc(Cl)c(Cl)c2)n1         7.05
2  CC(C)[C@H]1COC(=O)N1c1ccnc(N[C@@H](C)C2CCCCC2)n1         5.93
3  CC(C)[C@H]1COC(=O)N1c1ccnc(N[C@@H](C)c2cccc(F)c2)n1         6.38
4  CC(C)[C@H]1COC(=O)N1c1ccnc(N[C@@H](C)c2cccc(Cl)c2)n1         6.48

P. COc1cccc([C@H](C)Nc2nccc(N3C(=O)OC[C@@H]3C(C)C)n2)c1
Q. CC(C)[C@H]1COC(=O)N1c1ccnc(N[C@@H](C)c2ccc(Cl)cc2)n1
# input Please tell me which of the two, P or Q , has the higher reported pIC50 value. Mark your answer with the label of the selected entry.
# output Q
(Q: 6.80, P: 6.37)
